tested.system: Potassium voltage-gated channel subfamily A member 3 (Homo sapiens)
procedure.details: Inhibitory activity against voltage-gated potassium channel subunit Kv1.3 of human T cells
Format: functional, cell-based, T-cell
quantity.kind: IC50 (nM)

A selection of reference data follows.
CC(=O)O[C@H]1C2[C@@](C)(CCC3C(O)(CCc4ccccc4)C(C)=C[C@@H](OC(C)=O)[C@@]32C)C2C=CCOC[C@]2([C@@H](C)OC(C)=O)[C@H]1OC(C)=O (stereo not given in full)
460
C=C(C[C@]1(O)C(C)=C[C@@H](OC(C)=O)[C@]2(C)C3[C@H](OC(C)=O)[C@H](OC(C)=O)[C@@]4([C@@H](C)OC(C)=O)COCC=CC4[C@]3(C)CCC21)c1ccccc1 (stereo not given in full)
131

[1] CC(=O)O[C@H]1C2[C@@](C)(CCC3C(O)(C[C@H](C)c4ccccc4)C(C)=C[C@@H](OC(C)=O)[C@@]32C)C2C=CCOC[C@]2([C@@H](C)OC(C)=O)[C@H]1OC(C)=O (stereo not given in full)
[2] C=CC[C@H](CC1(O)C(C)=C[C@@H](OC(C)=O)[C@@]2(C)C1CC[C@]1(C)C2[C@H](OC(C)=O)[C@H](OC(C)=O)[C@@]2([C@@H](C)OC(C)=O)COCC=CC12)c1ccccc1OC (stereo not given in full)
[3] COc1ccccc1CCC1(O)C(C)=C[C@@H](OC(C)=O)[C@@]2(C)C1CC[C@]1(C)C2[C@H](OC(C)=O)[C@H](OC(C)=O)[C@@]2([C@@H](C)OC(C)=O)COCC=CC12 (stereo not given in full)
# sort list by recorded IC50, greatest to least Rank them, then answer with their labels in that order.
1, 3, 2

---

tested.system: Potassium voltage-gated channel subfamily A member 3 (Homo sapiens)
procedure.details: Inhibitory activity against voltage-gated potassium channel subunit Kv1.3 of human T cells
Assay type: functional, cell-based, T-cell
pIC50: −log10 of the molar value.
quantity.kind: pIC50

C=C1C[C@@]2(O)C3CC[C@]4(C)C([C@H](OC(C)=O)[C@H](OC(C)=O)[C@@]5([C@@H](C)OC(C)=O)COC(=O)C=CC45)[C@@]3(C)[C@H](OC(C)=O)[C@H](OC(C)=O)[C@@]2(C)C2(C(=O)OC)O[C@H]12 (stereo partly drawn)
6.74

[1] COc1cccc(CCC2(O)C(C)=C[C@@H](OC(C)=O)[C@@]3(C)C2CC[C@]2(C)C3[C@H](OC(C)=O)[C@H](OC(C)=O)[C@@]3([C@@H](C)OC(C)=O)COCC=CC23)c1 (stereo partly drawn)
[2] COc1ccccc1[C@H](C)C[C@]1(O)C(C)=C[C@@H](OC(C)=O)[C@]2(C)C3[C@H](OC(C)=O)[C@H](OC(C)=O)[C@@]4([C@@H](C)OC(C)=O)COCC=CC4[C@]3(C)CCC21 (stereo partly drawn)
Between item 1 and item 2 , which reported pIC50 is smaller? Please respond with the label that marks your chosen entry.
1

---

tested.system: Potassium voltage-gated channel subfamily A member 3 (Homo sapiens, UniProt P22001)
Sequence (P22001 whole entry): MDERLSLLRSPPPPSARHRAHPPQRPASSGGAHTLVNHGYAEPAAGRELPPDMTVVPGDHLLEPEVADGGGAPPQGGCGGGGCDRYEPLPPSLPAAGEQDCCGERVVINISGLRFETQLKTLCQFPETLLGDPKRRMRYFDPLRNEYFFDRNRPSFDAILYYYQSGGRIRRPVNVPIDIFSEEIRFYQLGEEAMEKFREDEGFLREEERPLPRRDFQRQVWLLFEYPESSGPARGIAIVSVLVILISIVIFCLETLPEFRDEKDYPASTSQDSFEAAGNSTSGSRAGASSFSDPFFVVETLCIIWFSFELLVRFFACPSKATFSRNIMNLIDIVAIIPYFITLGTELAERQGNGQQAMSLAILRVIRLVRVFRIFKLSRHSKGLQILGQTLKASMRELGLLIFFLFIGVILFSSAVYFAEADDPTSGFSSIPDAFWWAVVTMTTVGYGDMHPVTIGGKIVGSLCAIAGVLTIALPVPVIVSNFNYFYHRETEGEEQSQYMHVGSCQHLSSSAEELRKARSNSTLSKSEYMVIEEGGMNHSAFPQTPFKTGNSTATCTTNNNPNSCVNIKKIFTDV
procedure.details: Inhibition of voltage-gated potassium channel subunit Kv1.3 in chinese hamster ovary cells
Format: functional, cell-based
pIC50: −log10 of the molar value.
quantity.kind: pIC50

COc1cccc(CCC2(O)C(C)=C[C@@H](OC(C)=O)[C@@]3(C)C2CC[C@]2(C)C3[C@H](OC(C)=O)[C@H](OC(C)=O)[C@@]3([C@@H](C)OC(C)=O)COCC=CC23)c1 (stereo not given in full)
7.62

[I] CCOc1ccccc1CCC1(O)C(C)=C[C@@H](OC(C)=O)[C@@]2(C)C1CC[C@]1(C)C2[C@H](OC(C)=O)[C@H](OC(C)=O)[C@@]2([C@@H](C)OC(C)=O)COCC=CC12 (stereo not given in full)
[II] COc1ccc(CCC2(O)C(C)=C[C@@H](OC(C)=O)[C@@]3(C)C2CC[C@]2(C)C3[C@H](OC(C)=O)[C@H](OC(C)=O)[C@@]3([C@@H](C)OC(C)=O)COCC=CC23)cc1 (stereo not given in full)
Between item I and item II , which reported pIC50 is smaller? Please respond with the label that marks your chosen entry.
II
(II: 6.89, I: 7.47)

[a] CC[C@H](CC1(O)C(C)=C[C@@H](OC(C)=O)[C@@]2(C)C1CC[C@]1(C)C2[C@H](OC(C)=O)[C@H](OC(C)=O)[C@@]2([C@@H](C)OC(C)=O)COCC=CC12)c1ccccc1OC (stereo not given in full)
[b] C=C(CC1(O)C(C)=C[C@@H](OC(C)=O)[C@@]2(C)C1CC[C@]1(C)C2[C@H](OC(C)=O)[C@H](OC(C)=O)[C@@]2([C@@H](C)OC(C)=O)COCC=CC12)c1ccccc1SCC (stereo not given in full)
Between item a and item b , which reported pIC50 is smaller? Please respond with the label that marks your chosen entry.
a
(a: 7.55, b: 7.77)
